# test-system: Heat shock protein HSP 90-alpha (Homo sapiens)
# measurement-notes: Binding affinity to recombinant HSP90-alpha (unknown origin) by surface plasmon resonance analysis
pKd: −log10 of the molar value.

compound: CC(=O)O[C@H]1C[C@@H](OC(C)=O)[C@@]2(C)CO[C@@H]3[C@@H](O)[C@@]4(C)C5=CC[C@@H](c6ccoc6)[C@]5(C)CC[C@@H]4[C@]1(C)[C@@H]32
test-system: Heat shock protein HSP 90-alpha (Homo sapiens)
pKd: 7.31
//
compound: C/C=C(\C)C(=O)O[C@H]1C[C@@H](O)[C@@]2(C)CO[C@H]3[C@H]4O[C@@H]5C[C@@H](c6ccoc6)C(C)=C5[C@@]4(C)[C@H](CC(=O)OC)[C@]1(C)[C@@H]32 [DESACETYL SALANNIN]
test-system: Heat shock protein HSP 90-alpha (Homo sapiens)
pKd: 7.48

###

# Test system: PC-3
# measurement-notes: Cytotoxicity against human PC3 cells assessed as growth inhibition at 100 uM after 48 hrs by trypan blue exclusion assay
# Assay type: functional, cell-based
The source made the active and inactive calls. The calls are words filed in the database; no cut-off is given here.
Classes used: active, inactive

molecule: CC(=O)O[C@H]1C[C@@H](OC(C)=O)[C@@]2(C)CO[C@@H]3[C@@H](O)[C@@]4(C)C5=CC[C@@H](c6ccoc6)[C@]5(C)CC[C@@H]4[C@]1(C)[C@@H]32
test-system: PC-3
assigned-category: active
//
molecule: CC(=O)O[C@@H]1[C@H](O)[C@H]2C(C)(C)C(=O)CC[C@]2(C)[C@H]2CC[C@]3(C)C(=CC[C@H]3[C@@H]3CC(=O)OC3=O)[C@]12C (relative stereo)
test-system: PC-3
assigned-category: inactive
//
molecule: COC(=O)C[C@H]1[C@]2(C)C3=C(C)[C@H](C4=COC(=O)C4O)C[C@@H]3O[C@@H]2[C@H](O)[C@@H]2[C@]1(C)C(=O)C=C[C@@]2(C)O (stereo not given in full)
test-system: PC-3
assigned-category: inactive
//
molecule: CC(=O)O[C@@H]1[C@H](O)[C@H]2C(C)(C)C(=O)C=C[C@]2(C)[C@H]2CC[C@]3(C)C(=CC[C@H]3c3ccoc3)[C@]12C
test-system: PC-3
assigned-category: active
//
molecule: COC(=O)[C@H]1OC[C@]23[C@@H]1[C@](C)([C@]14O[C@@]1(C)[C@H]1C[C@@H]4O[C@@H]4OC=C[C@@]41O)[C@H](O)[C@@H]1OC[C@](C(=O)OC)([C@H](O)C[C@@H]2O)[C@H]13
test-system: PC-3
assigned-category: inactive

###

# Tested on: PC-3
# measurement-notes: Cytotoxicity against human PC3 cells assessed as growth inhibition at 100 uM after 48 hrs by trypan blue exclusion assay
# Assay type: functional, cell-based
Active and inactive are the calls of the source. No cut-off for these calls is given here.
Outcomes: true for active, false for inactive

compound: C/C=C(\C)C(=O)O[C@H]1C[C@@H](O)[C@@]2(C)CO[C@H]3[C@H]4O[C@@H]5C[C@@H](c6ccoc6)C(C)=C5[C@@]4(C)[C@H](CC(=O)OC)[C@]1(C)[C@@H]32
assigned-category: false

compound: CC(=O)O[C@@H]1[C@H](O)[C@H]2C(C)(C)C(=O)C=C[C@]2(C)[C@H]2CC[C@]3(C)C(=CC[C@H]3C3=COC(=O)C3O)[C@]12C (relative stereo)
assigned-category: false

compound: CC(=O)O[C@@H]1[C@H](O)[C@H]2C(C)(C)C(=O)C=C[C@]2(C)[C@H]2CC[C@]3(C)C(=CC[C@H]3[C@@H]3CC(=O)OC3=O)[C@]12C (relative stereo)
assigned-category: true

compound: CC(=O)O[C@@H]1[C@H](O)[C@H]2C(C)(C)C(=O)CC[C@]2(C)[C@H]2CC[C@]3(C)C(=CC[C@H]3c3ccoc3)[C@]12C
assigned-category: true

compound: CC(=O)O[C@@H]1[C@H](O)[C@H]2C(C)(C)C(=O)CC[C@]2(C)[C@H]2CC[C@]3(C)C(=CC[C@H]3C3=COC(=O)C3O)[C@]12C (stereo not given in full)
assigned-category: false
